# Assay summary: chemical genetic growth profiling, strain panel (AID 1159580);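 also: tested at 20 µM; growth read once vehicle control cultures reached saturation at 30 °C; 1 = growth at the plate median or of vehicle wells; lower values mean less growth of the strain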
# Protocol conditions: S. cerevisiae deletion strains, growth OD, locus YER016W, strain bim1, active compounds read low
The whole screen tested about 5,500 compounds, of which about 2,000 (36%) were called active. Roughly 18% stayed inconclusive and do not appear here. The list shows a part of the results.
I'd be grateful if you could share measured normalized growth for these entries.
Numbers only.

>>> recorded_value("CC12CCC3C(CC=C4CC(O)CCC43C)C1CCC2=O (configuration not stated)")
1.01
>>> recorded_value("CC1(C)O[C@@H]2[C@@H](CO[C@@]3(COS(N)(=O)=O)OC(C)(C)O[C@@H]23)O1")
1.04
>>> recorded_value("NC(=O)c1cc[n+](CC2=C(C(=O)O)N3C(=O)C(NC(=O)C(c4ccccc4)S(=O)(=O)[O-])C3SC2)cc1 (configuration not stated)")
0.99

State recorded normalized growth for all listed compounds.
1. CCCN(CCC)C(=O)C(CCC(=O)O)NC(=O)c1ccccc1 (configuration not stated)
2. CC12CCCC(O)(C1)C1CC(C)(C)C1CC2 (configuration not stated)
3. CC1(C)CC2C1CCC1(C)OC2(C)CCC1O (configuration not stated)
4. Cc1ccc(C(C)C)cc2c(C)ccc1-2
5. O=C1N=C(O)CN1/N=C\c1ccc(-c2ccc([N+](=O)[O-])cc2)o1
6. C[C@@H]1C[C@@H]([C@H](O)CC2CC(=O)NC(=O)C2)C(=O)[C@@H](C)C1

0.992
0.995
1.02
1
0.99
0.0609

====

I'd be grateful if you could share measured normalized growth for these entries.
# Assay summary: chemical genetic growth profiling, strain panel (AID 1159580);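 also: tested at 20 µM; growth read once vehicle control cultures reached saturation at 30 °C; 1 = growth at the plate median or of vehicle wells; lower values mean less growth of the strain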
# Protocol conditions: S. cerevisiae deletion strains, growth OD, locus YHR030C, strain SLT2, active compounds read low
The campaign covered roughly 5,500 compounds. About 2,000 (36%) were called active. Roughly 18% stayed inconclusive and do not appear here. The list shows a part of the results.
Give bare numbers.

Example results:
>>> recorded_value("C/C(=N/OC(=O)Nc1ccc(Cl)cc1)c1ccc2c(c1)CCO2")
0.607
>>> recorded_value("COc1ccc(/C=C/C(=O)c2ccc(O)cc2O)cc1")
0.458
>>> recorded_value("O=C(CCCCCCCCC(=O)c1ccccc1)c1ccccc1")
0.964
>>> recorded_value("CC(C)(C)c1nc(N)sc1Br")
0.98
>>> recorded_value("Cc1ccc(CS/C(N)=N\\N)cc1")
0.836

State recorded normalized growth for all listed molecules.
1. O=C(O)CCS(=O)(=O)/C=C/c1ccccc1
2. CCNS(=O)(=O)c1cc(Cl)sc1Cl
3. Nc1nccs1
4. COC(=O)c1ccc(C(=O)OC)nc1
5. COc1cc(C(=O)Oc2c(Cl)cc(Cl)cc2C=Nc2cccc(C(F)(F)F)c2)cc(OC)c1OC
6. CCOC(=O)c1c(C)n(-c2ccccc2)c2ccc(O)cc12
7. C#CCN(C)C(C)Cc1ccccc1 (stereo not given)
8. COc1ccc(OC)c(S(=O)(=O)NCc2c(F)cccc2Cl)c1

[0.996, 1.05, 1, 0.982, 0.363, 0.923, 1.01, 1.02]

====

# Assay summary: chemical genetic growth profiling, strain panel (AID 1159580);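 also: tested at 20 µM; growth read once vehicle control cultures reached saturation at 30 °C; 1 = growth at the plate median or of vehicle wells; lower values mean less growth of the strain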
# Protocol conditions: S. cerevisiae deletion strains, growth OD, locus YOR290C, strain snf2, active compounds read low
The campaign covered roughly 5,500 compounds. About 2,000 (36%) were called active. Not shown: some 18% with an inconclusive outcome. The list shows a part of the results.
I'd be grateful if you could share measured normalized growth for these entries.
Give bare numbers.

State recorded normalized growth for all listed molecules.
1. CCOC(N)=O
2. O=C(O)P(=O)(O)O
3. Nc1ccc(S(=O)(=O)Nc2nccs2)cc1

1. 0.997
2. 0.997
3. 0.997

State recorded normalized growth for all listed molecules.
1. C#C[C@]1(O)CCC2C3CCc4cc(O)ccc4C3CC[C@@]21C (stereo partly drawn)
2. CC(=O)O[C@H]1C[C@@H](OC(C)=O)C(C)(C)C2C[C@@H](OC(C)=O)[C@]3(C)C(CC[C@@]4(C)[C@H](c5ccoc5)C(=O)[C@H]5O[C@]543)[C@]21C (stereo partly drawn)
3. O=C(O)c1cc(=O)c(O)c2c(O)c(O)c(O)cc2c1
4. Nc1nccs1
5. O=C(O)c1cc(=O)c(O)c2c(O)c(O)ccc2c1
6. O=C(O)c1cc(O)c(O)c(O)c1
7. O=C(O)CCCCC1SCC2NC(=O)NC21 (stereo not drawn)

1: 0.908; 2: 1; 3: 0.0962; 4: 0.945; 5: 0.947; 6: 1.05; 7: 0.977
